Each entry below carries its reported pIC50.
- testTarget: 11b-HSD1 (Mus musculus, UniProt P50172)
- Construct: Fibroblasts were differentiated into adipocytes; endogenous in cells
- Sequence (P50172 whole entry): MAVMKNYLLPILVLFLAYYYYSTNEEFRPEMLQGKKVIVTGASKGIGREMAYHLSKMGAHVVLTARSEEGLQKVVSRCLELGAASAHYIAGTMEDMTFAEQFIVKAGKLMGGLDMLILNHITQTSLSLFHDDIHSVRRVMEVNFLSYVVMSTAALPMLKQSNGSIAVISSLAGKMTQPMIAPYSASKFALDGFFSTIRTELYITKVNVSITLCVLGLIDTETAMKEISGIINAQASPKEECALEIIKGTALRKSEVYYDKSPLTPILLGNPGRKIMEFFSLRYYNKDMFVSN
- protocol: Cellular assay, 11b-HSD1 activity in differentiated 3T3-L1 cells
- testSettings: 4 hour pre-incubation, read-out: [C2] HSD1 cellular 3T3-L1 Score
pIC50: −log10 of the molar value.

Solved entries:
[[record]]
compound = "O=C1C(Cc2cccc(Cl)c2)CCN1Cc1ccccc1 (stereo not drawn) [Compound 51]"
measurementlabel = "pIC50"
endpointresult = "5.00 to 6.00"

[[record]]
compound = "COc1cc(C[C@H]2CCN([C@@H](C)c3ccccc3)C2=O)ccc1OCc1ccccc1 [Compound 122]"
measurementlabel = "pIC50"
endpointresult = "5.00 to 6.00"

[[record]]
compound = "C[C@@H](c1ccccc1)N1CC[C@H](Cc2cccc(Cl)c2Cl)C1=O [Compound 11]"
measurementlabel = "pIC50"
endpointresult = "5.00 to 6.00"

[[record]]
compound = "C[C@H](c1ccccc1)N1CC[C@@H](Cc2c(Cl)cccc2Cl)C1=O [Compound 44]"
measurementlabel = "pIC50"
endpointresult = "5.00 to 6.00"

[[record]]
compound = "C[C@@H](c1ccccc1)N1CC[C@H](CCc2c(F)cccc2Cl)C1=O [Compound 129]"
measurementlabel = "pIC50"
endpointresult = "5.00 to 6.00"


Give the value of pIC50 reported for the following: C[C@@H](c1ccccc1)N1CC[C@H](Cc2c(F)cccc2F)C1=O [Compound 71] > 6.00

Give the value of pIC50 reported for the following: O=C1C(Cc2c(Cl)cccc2Cl)CCN1[C@@H](Cc1ccccc1)c1ccccc1 (stereo partly drawn) [Compound 102] < 5.00

Give the value of pIC50 reported for the following: O=C1C(Cc2c(F)cccc2F)CCN1CCc1ccccc1 (stereo not drawn) [Compound 84] > 6.00

Give the value of pIC50 reported for the following: COC[C@H](c1ccccc1)N1CC[C@H](Cc2c(Cl)cccc2Cl)C1=O [Compound 98] 5.00 to 6.00

---

- testTarget: 11b-HSD1 (Homo sapiens)
- protocol: Enzymatic assay, 11b-HSD1 dependent conversion of cortisone into cortisol (reductase activity)
- testSettings: recombinant protein, 2 μM cortisone, 45 min at 37 C; read-out: [C1] HSD1-prot Reduct Score
- Procedure: The effects of compounds on 11b-HSD1 dependent conversion of cortisone into cortisol (reductase activity) was studied in a reaction mixture containing 30 mM Tris-HCl buffer pH 7.2, 180 μM NADPH, 1 mM EDTA, 2 μM cortisone, 1 μl drug and/or solvent and 11 μg recombinant protein in a final volume of 100 μl. All incubations were performed for 45 min at 37 C in a water bath. The reaction was stopped by adding 100 μl acetonitrile containing 20 μg corticosterone as internal standard. […]
Each entry below carries its reported IC50.

Solved entries:
[[record]]
compound = "C[C@@H](c1ccccc1)N1CC[C@H](Cc2cc3c(cc2Cl)OCO3)C1=O"
measurementlabel = "IC50"
endpointresult = "> 10 µM"

[[record]]
compound = "COc1cccc(C[C@H]2CCN([C@@H](C)c3ccccc3)C2=O)c1"
measurementlabel = "IC50"
endpointresult = "1 to 10 µM"


State measured IC50 of the compound "C[C@@H](c1ccccc1)N1CC[C@@H](Cc2ccc(F)cc2Cl)C1=O" with 11b-HSD1 (Homo sapiens). < 1 µM

State measured IC50 of the compound "C[C@@H](c1ccccc1)N1CC[C@H](CCc2ccc(N(C)C)cc2)C1=O" with 11b-HSD1 (Homo sapiens). > 10 µM

State measured IC50 of the compound "O=C1[C@H](Cc2c(Cl)cccc2Cl)CCN1[C@@H](CO)c1ccccc1" with 11b-HSD1 (Homo sapiens). 1 to 10 µM

State measured IC50 of the compound "CC[C@]1(Cc2ccccc2C)CCN([C@H](C)c2ccccc2)C1=O" with 11b-HSD1 (Homo sapiens). > 10 µM

State measured IC50 of the compound "COc1ccc(CC[C@@H]2CCN([C@@H](C)c3ccccc3)C2=O)cc1OC" with 11b-HSD1 (Homo sapiens). > 10 µM

State measured IC50 of the compound COc1cccc(CC2CCN(Cc3ccccc3)C2=O)c1 (stereo not drawn) with 11b-HSD1 (Homo sapiens). > 10 µM

State measured IC50 of the compound O=C1C(Cc2c(Cl)cccc2Cl)CCN1[C@@H](Cc1ccccc1)c1ccccc1 (stereo partly drawn) with 11b-HSD1 (Homo sapiens). > 10 µM

---

- testTarget: 11b-HSD1 (Mus musculus)
- Construct: Fibroblasts were differentiated into adipocytes; endogenous in cells
- protocol: Cellular assay, 11b-HSD1 activity in differentiated 3T3-L1 cells
- testSettings: 4 hour pre-incubation, read-out: [C2] HSD1 cellular 3T3-L1 Score
measurementLabel: IC50

Solved entries:
[[record]]
compound = "CC[C@H](c1ccccc1)N1CC[C@H](Cc2c(Cl)cccc2Cl)C1=O [Compound 96]"
endpointresult = "> 10 µM"

[[record]]
compound = "C[C@@H](c1ccccc1)N1CC[C@H](CCc2ccccc2)C1=O [Compound 73]"
endpointresult = "1 to 10 µM"

[[record]]
compound = "C[C@H](c1ccccc1)N1CC[C@@H](Cc2ccccc2)C1=O [Compound 37]"
endpointresult = "1 to 10 µM"

[[record]]
compound = "O=C1C(Cc2ccc(F)cc2Cl)CCCN1CCc1ccccc1 (stereo not drawn) [Compound 88]"
endpointresult = "1 to 10 µM"

[[record]]
compound = "CC[C@H](c1ccccc1)N1CC[C@@H](Cc2c(Cl)cccc2Cl)C1=O [Compound 97]"
endpointresult = "> 10 µM"


Give the value of IC50 reported for the following: O=C1C(Cc2c(Cl)cccc2Cl)CCN1CCc1ccccc1 (stereo not drawn) [Compound 32] < 1 µM

Give the value of IC50 reported for the following: COC[C@H](c1ccccc1)N1CC[C@@H](Cc2c(Cl)cccc2Cl)C1=O [Compound 99] < 1 µM

Give the value of IC50 reported for the following: N#Cc1ccccc1CC1CCN(Cc2ccccc2)C1=O (stereo not drawn) [Compound 54] 1 to 10 µM

Give the value of IC50 reported for the following: Cc1cccc(CC2CCN(Cc3ccccc3)C2=O)c1 (stereo not drawn) [Compound 56] 1 to 10 µM

---

- testTarget: 11b-HSD1 (Homo sapiens, UniProt P28845)
- Sequence (P28845 whole entry): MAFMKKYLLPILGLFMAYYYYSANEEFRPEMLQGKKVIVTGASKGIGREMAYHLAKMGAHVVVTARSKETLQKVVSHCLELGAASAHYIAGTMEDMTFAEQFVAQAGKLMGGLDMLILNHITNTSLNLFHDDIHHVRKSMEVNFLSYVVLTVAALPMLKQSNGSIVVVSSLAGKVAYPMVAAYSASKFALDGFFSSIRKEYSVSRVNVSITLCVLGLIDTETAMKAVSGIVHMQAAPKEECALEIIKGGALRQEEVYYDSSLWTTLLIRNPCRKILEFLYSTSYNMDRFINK
- protocol: Enzymatic assay, 11b-HSD1 dependent conversion of cortisone into cortisol (reductase activity)
- Assay type: biochemical
- testSettings: recombinant protein, 2 μM cortisone, 45 min at 37 C; read-out: [C1] HSD1-prot Reduct Score
- Method: The effects of compounds on 11b-HSD1 dependent conversion of cortisone into cortisol (reductase activity) was studied in a reaction mixture containing 30 mM Tris-HCl buffer pH 7.2, 180 μM NADPH, 1 mM EDTA, 2 μM cortisone, 1 μl drug and/or solvent and 11 μg recombinant protein in a final volume of 100 μl. All incubations were performed for 45 min at 37 C in a water bath. The reaction was stopped by adding 100 μl acetonitrile containing 20 μg corticosterone as internal standard. […]
Each entry below carries its reported IC50.

Solved entries:
[[record]]
molecule = "Cc1ccc([C@H](O)[C@H]2CCN([C@@H](C)c3ccccc3)C2=O)c(C)c1 [Compound 91]"
measurementlabel = "IC50"
endpointresult = "1 to 10 µM"

[[record]]
molecule = "O=C1C(Cc2ccc(F)cc2Cl)CCCN1CCc1ccccc1 (stereo not drawn) [Compound 88]"
measurementlabel = "IC50"
endpointresult = "1 to 10 µM"

[[record]]
molecule = "Cc1cccc(C[C@H]2CCN([C@H](C)c3ccccc3)C2=O)c1 [Compound 68]"
measurementlabel = "IC50"
endpointresult = "> 10 µM"


Give the value of IC50 reported for the following: Cc1ccc(C[C@H]2CCN([C@H](C)c3ccccc3)C2=O)cc1 [Compound 26] > 10 µM

Give the value of IC50 reported for the following: CC[C@H](c1ccccc1)N1CC[C@H](Cc2c(Cl)cccc2Cl)C1=O [Compound 96] 1 to 10 µM

Give the value of IC50 reported for the following: Cc1ccc([C@H](O)[C@@H]2CCN([C@@H](C)c3ccccc3)C2=O)c(C)c1 [Compound 69] 1 to 10 µM

Give the value of IC50 reported for the following: COC[C@H](c1ccccc1)N1CC[C@@H](Cc2c(Cl)cccc2Cl)C1=O [Compound 99] < 1 µM

Give the value of IC50 reported for the following: COC[C@@H](c1ccccc1)N1CC[C@H](Cc2c(Cl)cccc2Cl)C1=O [Compound 100] 1 to 10 µM

Give the value of IC50 reported for the following: CC(C)(c1ccccc1)N1CCC(Cc2c(Cl)cccc2Cl)C1=O (stereo not drawn) [Compound 115] > 10 µM

Give the value of IC50 reported for the following: COC[C@H](c1ccccc1)N1CC[C@H](Cc2c(Cl)cccc2Cl)C1=O [Compound 98] > 10 µM

Give the value of IC50 reported for the following: COc1ccc(C[C@H]2CCN([C@@H](C)c3ccccc3)C2=O)c(Cl)c1OC [Compound 120] 1 to 10 µM

Give the value of IC50 reported for the following: O=C1C(Cc2c(Cl)cccc2Cl)CCN1CCc1ccccc1 (stereo not drawn) [Compound 32] < 1 µM

Give the value of IC50 reported for the following: O=C1C(Cc2c(Cl)cccc2Cl)CCN1CCc1ccc(F)cc1 (stereo not drawn) [Compound 80] < 1 µM

Give the value of IC50 reported for the following: COc1ccc(CCN2CCC(Cc3c(Cl)cccc3Cl)C2=O)cc1 (stereo not drawn) [Compound 92] < 1 µM

Give the value of IC50 reported for the following: O=C1C(Cc2cccc(Cl)c2)CCN1Cc1ccccc1 (stereo not drawn) [Compound 51] > 10 µM

Give the value of IC50 reported for the following: C[C@@H](c1ccccc1)N1CC[C@H](Cc2ccccc2Cl)C1=O [Compound 9] 1 to 10 µM

Give the value of IC50 reported for the following: COc1cccc(CC2CCN(CCc3ccccc3)C2=O)c1 (stereo not drawn) [Compound 24] 1 to 10 µM

Give the value of IC50 reported for the following: C[C@H](C[C@@H]1CCN([C@@H](C)c2ccccc2)C1=O)c1ccccc1 [Compound 136] 1 to 10 µM

Give the value of IC50 reported for the following: COc1ccccc1C[C@H]1CCN([C@H](C)c2ccccc2)C1=O [Compound 39] > 10 µM

Give the value of IC50 reported for the following: C[C@H](c1ccccc1)N1CC[C@H](Cc2c(Cl)cccc2Cl)C1=O [Compound 45] < 1 µM

Give the value of IC50 reported for the following: COc1cccc(C[C@H]2CCN([C@H](C)c3ccccc3)C2=O)c1 [Compound 66] > 10 µM

Give the value of IC50 reported for the following: C[C@@H](c1ccccc1)N1CC[C@@H](Cc2ccc3c(c2)OCO3)C1=O [Compound 153] 1 to 10 µM

Give the value of IC50 reported for the following: Cc1ccccc1CC[C@H]1CCN([C@@H](C)c2ccccc2)C1=O [Compound 128] 1 to 10 µM

Give the value of IC50 reported for the following: Cc1ccccc1C[C@H]1CCN([C@@H](C)c2ccccc2)C1=O [Compound 2] 1 to 10 µM

Give the value of IC50 reported for the following: COc1cc(C[C@H]2CCN([C@@H](C)c3ccccc3)C2=O)ccc1OCc1ccccc1 [Compound 122] 1 to 10 µM
